Numbers sourced from ChEMBL document CHEMBL3885861.

Species: Rattus norvegicus
methodNotes: Open TG-GATES - Regimen: Daily Repeat
Format: toxicity, organism-based, Sprague-Dawley
Parameters: regimen Daily Repeat, gender Male, age 6 weeks
testConditions: in vivo, po, 100 mg/kg, 72 h, route gavage, dose level Low, time 3 day
// reported TERMINAL_BW per item
Quick note: give the figure in g, leave out the unit.

For CNC(=C[N+](=O)[O-])NCCSCc1ccc(CN(C)C)o1 [RANITIDINE] the molecule record lists TERMINAL_BW as 232

The measured TERMINAL_BW associated with CN/C(=N/CCSCc1nc[nH]c1C)NC#N [CIMETIDINE] reads 228.3

Short answer for CCOc1ccc(NC(C)=O)cc1 [PHENACETIN] : TERMINAL_BW was 232.8

* * *

Species: Rattus norvegicus
methodNotes: Open TG-GATES - Regimen: Daily Repeat
Type: toxicity, organism-based, Sprague-Dawley
Design: regimen Daily Repeat, gender Male, age 6 weeks
testConditions: in vivo, po, 0 mg/kg, […], tissue Plasma, route gavage, dose level Control, time 7 day
Quick list: LDH per entry.
// note: answer is a bare numeric in IU/L

Past entries and their recorded results:
>>> experimentalresult("COC(=O)C1=C(C)NC(C)=C(C(=O)OC)C1c1ccccc1[N+](=O)[O-]")
98.2
>>> experimentalresult("O=C(OC[C@H]1O[C@@H](OC(=O)c2cc(O)c(O)c(OC(=O)c3cc(O)c(O)c(O)c3)c2)[C@H](OC(=O)c2cc(O)c(O)c(OC(=O)c3cc(O)c(O)c(O)c3)c2)[C@@H](OC(=O)c2cc(O)c(O)c(OC(=O)c3cc(O)c(O)c(O)c3)c2)[C@@H]1OC(=O)c1cc(O)c(O)c(OC(=O)c2cc(O)c(O)c(O)c2)c1)c1cc(O)c(O)c(OC(=O)c2cc(O)c(O)c(O)c2)c1")
57
>>> experimentalresult("CN(C)CCC(c1ccc(Cl)cc1)c1ccccn1 (configuration not stated)")
90.8
>>> experimentalresult("CN/C(=N/CCSCc1nc[nH]c1C)NC#N")
165.2
>>> experimentalresult("CC(C)NNC(=O)c1ccncc1")
220.4
>>> experimentalresult("Cc1nnc2n1-c1ccc(Cl)cc1C(c1ccccc1Cl)=NC2")
73.6

The compound listed as CN1C(=O)CCS(=O)(=O)C1c1ccc(Cl)cc1 (configuration not stated) shows LDH equal to 89.8

* * *

compounds and their reported CRE
Organism: Rattus norvegicus
methodNotes: Open TG-GATES - Regimen: Daily Repeat
Type: toxicity, organism-based, Sprague-Dawley
Parameters: regimen Daily Repeat, gender Male, age 6 weeks
testConditions: in vivo, po, 1000 mg/kg, 72 h, tissue Plasma, route gavage, dose level High, time 3 day
Quick note: give the figure in mg/dL, leave out the unit.

Answered cases to consult:
>>> experimentalresult("Cc1nnc2n1-c1ccc(Cl)cc1C(c1ccccc1Cl)=NC2")
0.2
>>> experimentalresult("O=C(OC[C@H]1O[C@@H](OC(=O)c2cc(O)c(O)c(OC(=O)c3cc(O)c(O)c(O)c3)c2)[C@H](OC(=O)c2cc(O)c(O)c(OC(=O)c3cc(O)c(O)c(O)c3)c2)[C@@H](OC(=O)c2cc(O)c(O)c(OC(=O)c3cc(O)c(O)c(O)c3)c2)[C@@H]1OC(=O)c1cc(O)c(O)c(OC(=O)c2cc(O)c(O)c(O)c2)c1)c1cc(O)c(O)c(OC(=O)c2cc(O)c(O)c(O)c2)c1")
0.4

Now let's try a different one.
Note to self: CRE recorded for CCOc1ccc(NC(C)=O)cc1 was 0.2
